# System: E. coli TESEC Alr+ wild-type control
# PROCEDURE_TEXT: growth (OD600 after 10 h); higher = more growth (less inhibition)
# EXPERIMENTAL_PARAMETERS: compound 0.1 mM; raw OD600 reference: median of DMSO wells 0.49, cell-free background 0.052
Structures can show the parent of a compound that is named as a salt.
Think of 0.5 as a floor: if growth stands on it or above, it is rule met; beneath it, rule not met.

- COMPOUND: "C[N+]1(C)CCC(=C(c2ccccc2)c2ccccc2)CC1 [Diphemanil methylsulfate]"
  ASSIGNED_CATEGORY: "rule not met"
- COMPOUND: "Nc1nc2[nH]cc(CCc3ccc(C(=O)N[C@@H](CCC(=O)O)C(=O)O)cc3)c2c(=O)[nH]1 [Pemetrexed disodium]"
  ASSIGNED_CATEGORY: "rule met"
- COMPOUND: "OC(CCCN1CCCCC1)(c1ccccc1)c1ccccc1 [Diphenidol hydrochloride]"
  ASSIGNED_CATEGORY: "rule not met"
- COMPOUND: "CN1CCN2c3ccccc3Cc3ccccc3C2C1 (configuration not stated) [Mianserine hydrochloride]"
  ASSIGNED_CATEGORY: "rule not met"
- COMPOUND: "Nc1ccn([C@@H]2CS[C@H](CO)O2)c(=O)n1 [Lamivudine]"
  ASSIGNED_CATEGORY: "rule met"
- COMPOUND: "CC[N+](CC)(CC)CCC(O)(c1ccccc1)C1CCCCC1 (configuration not stated) [Tridihexethyl chloride]"
  ASSIGNED_CATEGORY: "rule not met"
- COMPOUND: "C[C@H](CCC(=O)O)[C@H]1CC[C@H]2[C@@H]3C(=O)C[C@@H]4CC(=O)CC[C@]4(C)[C@H]3CC(=O)[C@]12C [Dehydrocholic acid]"
  ASSIGNED_CATEGORY: "rule met"
- COMPOUND: "COc1cc(C)c(/C=C/C(C)=C/C=C/C(C)=C/C(=O)O)c(C)c1C [Acitretin]"
  ASSIGNED_CATEGORY: "rule not met"

Textbook exercise: given the entry CC(=O)OCC(=O)[C@@]1(O)CC[C@H]2[C@@H]3CCC4=CC(=O)CC[C@]4(C)[C@H]3[C@@H](O)C[C@@]21C [Cortisol acetate] , state whether its growth is greater than or equal to 0.5. rule met

Does the reported growth for CN1CCC(=C2c3ccccc3CCc3cccnc32)CC1 [Azatadine maleate] fall at or above the 0.5 mark? rule met

Does the reported growth for CN[C@@H]1[C@H](O[C@H]2[C@H](O[C@H]3[C@H](O)[C@@H](O)[C@H](NC(=N)N)[C@@H](O)[C@@H]3NC(=N)N)O[C@@H](C)[C@]2(O)CO)O[C@@H](CO)[C@H](O)[C@H]1O [Dihydrostreptomycin sulfate] fall at or above the 0.5 mark? rule not met

Exam item: decide whether the reported growth for COCCCC/C(=N\OCCN)c1ccc(C(F)(F)F)cc1 [Fluvoxamine maleate] is at least 0.5. rule met

I'd appreciate it if you could say whether CO[C@@]1(NC(=O)C(C(=O)O)c2ccc(O)cc2)C(=O)N2C(C(=O)O)=C(CSc3nnnn3C)CO[C@@H]21 (some centres not stated) [Moxalactam disodium salt] has growth at least equal to 0.5. rule not met

API: above_or_equal(metric=growth, cutoff=0.5) for item CC(C)CC(=O)N[C@H](C(=O)N[C@H](C(=O)N[C@@H](CC(C)C)[C@@H](O)CC(=O)N[C@@H](C)C(=O)N[C@@H](CC(C)C)[C@@H](O)CC(=O)O)C(C)C)C(C)C [Pepstatin A] rule not met

Entry O=C1[C@H](CC[C@H](O)c2ccc(F)cc2)[C@@H](c2ccc(O)cc2)N1c1ccc(F)cc1 [Ezetimibe] : is its growth no less than 0.5? rule not met

* * *

# Tested on: E. coli TESEC Mtb Alr
# PROCEDURE_TEXT: growth (OD600 after 10 h); higher = more growth (less inhibition)
# EXPERIMENTAL_PARAMETERS: arabinose 10000 nM; compound 0.1 mM; raw OD600 reference: median of DMSO wells 0.264, cell-free background 0.041
Where a name gives a salt, the structure may show the parent alone.
Let's look at some compounds and their measured growth.
Keep it simple and answer with nothing but the number.

- COMPOUND: "NS(=O)(=O)Cc1noc2ccccc12 [Zonisamide]"
  MEASURED_ENDPOINT: "growth"
  READING: 0.254
- COMPOUND: "C[C@@H](c1ncncc1F)[C@](O)(Cn1cncn1)c1ccc(F)cc1F [Voriconazole]"
  MEASURED_ENDPOINT: "growth"
  READING: 0.252
- COMPOUND: "N[C@@H](Cc1cc(I)c(Oc2ccc(O)c(I)c2)c(I)c1)C(=O)O [Liothyronine]"
  MEASURED_ENDPOINT: "growth"
  READING: 0.2
- COMPOUND: "O=C(Cn1ccnc1[N+](=O)[O-])NCCO [Etanidazole]"
  MEASURED_ENDPOINT: "growth"
  READING: 0.258
- COMPOUND: "COc1c(O[C@@H]2O[C@H](CO)[C@@H](O)[C@H](O)[C@H]2O)cc2c(c1OC)-c1ccc(SC)c(=O)cc1[C@@H](NC(C)=O)CC2 [Thiocolchicoside]"
  MEASURED_ENDPOINT: "growth"
  READING: 0.275
- COMPOUND: "CN1C(=O)CC(c2ccccc2)C1=O (configuration not stated) [Phensuximide]"
  MEASURED_ENDPOINT: "growth"
  READING: 0.281
- COMPOUND: "C=CC[N@@+]12CC[C@@]34c5ccccc5N5/C=C6/[C@H]7C[C@H]8[C@@]9(CC[N@@+]8(CC=C)C/C7=C/CO)c7ccccc7N(/C=C(/[C@@H](C[C@@H]31)/C(=C\\CO)C2)[C@H]54)[C@@H]69 [Alcuronium chloride]"
  MEASURED_ENDPOINT: "growth"
  READING: 0.162
- COMPOUND: "CC[C@H](C)C(=O)O[C@H]1CCC=C2C=C[C@H](C)[C@H](CC[C@@H]3C[C@@H](O)CC(=O)O3)[C@H]21 [Mevastatin]"
  MEASURED_ENDPOINT: "growth"
  READING: 0.166
- COMPOUND: "Cc1ccccc1N1C(=O)c2cc(S(N)(=O)=O)c(Cl)cc2NC1C (configuration not stated) [Metolazone]"
  MEASURED_ENDPOINT: "growth"
  READING: 0.258
- COMPOUND: "Clc1cc(Cl)c(OCC#CI)cc1Cl [Haloprogin]"
  MEASURED_ENDPOINT: "growth"
  READING: 0.197

Identify measured growth corresponding to O=C1CN(/N=C/c2ccc(-c3ccc([N+](=O)[O-])cc3)o2)C(=O)N1 [Dantrolene sodium salt] 0.184

Supply recorded growth for O=P(O)(O)C(O)(Cn1ccnc1)P(=O)(O)O [Zoledronic acid hydrate] here. 0.278

Write down growth measured for item Nc1nnc(-c2cccc(Cl)c2Cl)c(N)n1 [Lamotrigine] 0.203

Using known records, supply growth for Nc1ncn(C2OC(CO)C(O)C2O)c(=O)n1 (configuration not stated) [Azacytidine-5] 0.0449

Quick one: give measured growth for CC1=C(/C=C/C(C)=C/C=C/C(C)=C/C(=O)O)C(C)(C)CCC1 [Retinoic acid] 0.262

Provide measured growth value, entry: Cc1cccc(C)c1NC(=O)CN1CCN(CCCC(c2ccc(F)cc2)c2ccc(F)cc2)CC1 [Lidoflazine] 0.263

Using the record for CCN(CC)CCOC(=O)C(c1ccccc1)C1CCCCC1 (configuration not stated) [Drofenine hydrochloride] , state its measured growth. 0.218

* * *

Listing of recorded growth by entry.
# Test system: E. coli TESEC Mtb Asd
# PROCEDURE_TEXT: growth (OD600 after 10 h); higher = more growth (less inhibition)
# EXPERIMENTAL_PARAMETERS: arabinose induction (level): Low; compound 0.1 mM; raw OD600 reference: median of DMSO wells 0.417, cell-free background 0.041
Counter-ions that a name gives are not always drawn.
Kindly provide the number alone.

# annotated cases, reported growth shown
- COMPOUND: "O=C(O)Cc1ccc(-c2ccccc2)cc1 [Felbinac]"
  growth: 0.434
- COMPOUND: "CN(C)C(=O)C(CCN1CCC(O)(c2ccc(Cl)cc2)CC1)(c1ccccc1)c1ccccc1 [Loperamide hydrochloride]"
  growth: 0.0487
- COMPOUND: "CN1CCCN=C1/C=C/c1cccs1 [Pyrantel tartrate]"
  growth: 0.416
- COMPOUND: "NCCC[C@H](N)CC(=O)N[C@H]1CNC(=O)[C@H]([C@H]2C[C@H](O)NC(N)=N2)NC(=O)/C(=C/NC(N)=O)NC(=O)[C@H](CO)NC(=O)[C@H](CO)NC1=O [Viomycin sulfate]"
  growth: 0.268
- COMPOUND: "CCCCN(CCCC)CCCOC(=O)c1ccc(N)cc1 [Butacaine]"
  growth: 0.445
- COMPOUND: "CN(C)CCOC(=O)COc1ccc(Cl)cc1 [Meclofenoxate hydrochloride]"
  growth: 0.426
- COMPOUND: "CCSc1ccc2c(c1)N(CCCN1CCN(C)CC1)c1ccccc1S2 [Thiethylperazine dimalate]"
  growth: 0.0464
- COMPOUND: "CC1(C)O[C@@H]2C[C@H]3[C@@H]4CCC5=CC(=O)C=C[C@]5(C)[C@H]4[C@@H](O)C[C@]3(C)[C@]2(C(=O)CO)O1 [Desonide]"
  growth: 0.378
- COMPOUND: "CCOC(=O)NNc1nncc2ccccc12 [Todralazine hydrochloride]"
  growth: 0.346
- COMPOUND: "COc1ccccc1O [Guaiacol]"
  growth: 0.364

# return growth of CCN(CC)CCOC(=O)c1ccc(N)cc1 [Procaine hydrochloride] (system: E. coli TESEC Mtb Asd) 0.384

Output reported growth of the compound Cc1[nH]cnc1CN1CCc2c(c3ccccc3n2C)C1=O [Alosetron hydrochloride] on E. coli TESEC Mtb Asd. 0.263

Lab note: E. coli TESEC Mtb Asd assay, enter growth for CNCCCN1c2ccccc2CCc2ccccc21 [Desipramine hydrochloride] here 0.222

Under E. coli TESEC Mtb Asd, report growth for C[N+]1(CCCCC[N+]2(C)CCCC2)CCCC1 [Pentolinium bitartrate] 0.424

Give growth only, for CS(=O)(=O)c1ccc(C2=C(c3ccccc3)C(=O)OC2)cc1 [Rofecoxib] , using E. coli TESEC Mtb Asd data. 0.362

Would you please give the reported growth of C[C@]12C[C@H](O)[C@H]3[C@@H](CCC4=CC(=O)CC[C@@]43C)[C@@H]1CC[C@@H]2C(=O)CO [Corticosterone] with E. coli TESEC Mtb Asd? 0.268

Tell me its growth on E. coli TESEC Mtb Asd: COc1ccc([C@@H]2Sc3ccccc3N(CCN(C)C)C(=O)[C@@H]2OC(C)=O)cc1 [Diltiazem hydrochloride] 0.434
